Let's look at some molecules and their measured pIC50.
Target: recombinant human HDAC1 (Homo sapiens (Human))
Assay: Enzymatic screening, HDAC1 inhibition (fluorogenic FdL_G substrate)
pIC50: −log10 of the molar value.

Which pIC50 is reported for this molecule? COc1ncc(NCc2ccc(-c3cn(Cc4ccc(-c5nnc(C(F)F)o5)cc4)nn3)cc2)cc1C(N)=O [compound 138]
< 3.70

Which pIC50 is reported for this molecule? Nc1ccc(-c2cn(C(COc3ccccc3)c3ccc(-c4nnc(C(F)F)o4)cc3)nn2)cn1 (centres unmarked) [compound 236]
< 3.70

Which pIC50 is reported for this molecule? Nc1ccc(-c2cn(C(CCCN3CCCCC3)c3ccc(-c4nnc(C(F)F)o4)cc3)nn2)cn1 (centres unmarked) [compound 303]
< 3.00

Which pIC50 is reported for this molecule? FC(F)c1nnc(-c2ccc(Cn3nnc(-c4cccc(-c5cnc(N6CCOCC6)s5)c4)n3)cc2)o1 [compd. 253]
< 3.70

Which pIC50 is reported for this molecule? Nc1ccc(-c2cc(Cc3ccc(-c4nnc(C(F)F)o4)cc3)on2)cn1 [Compd. 202]
< 3.70

Which pIC50 is reported for this molecule? CC(C)(c1ccncc1)c1nnn(Cc2ccc(-c3nnc(C(F)F)o3)cc2)n1 [compound 219]
< 3.70

Which pIC50 is reported for this molecule? FC(F)c1nnc(-c2ccc(Cn3nnc(-c4cccc(-c5nc6c([nH]5)CCNC6)c4)n3)nc2)o1 [compound 276]
3.78

Which pIC50 is reported for this molecule? Nc1ccc(-c2cn(Cc3ncc(-c4nnc(C(F)F)o4)cc3F)nn2)cn1 [compound 304]
< 3.00

Which pIC50 is reported for this molecule? CC(=O)Nc1cccc(-c2cn(Cc3ccc(-c4nnc(C(F)F)o4)cn3)nn2)c1 [compound 37]
< 3.70

Which pIC50 is reported for this molecule? FC(F)c1nnc(-c2ccc(Cn3nnc(-c4cccs4)n3)cc2)o1 [compd. 261]
< 3.70

###

Biological target: recombinant human HDAC1 (Homo sapiens (Human), UniProt Q13547)
Sequence (Q13547 whole entry): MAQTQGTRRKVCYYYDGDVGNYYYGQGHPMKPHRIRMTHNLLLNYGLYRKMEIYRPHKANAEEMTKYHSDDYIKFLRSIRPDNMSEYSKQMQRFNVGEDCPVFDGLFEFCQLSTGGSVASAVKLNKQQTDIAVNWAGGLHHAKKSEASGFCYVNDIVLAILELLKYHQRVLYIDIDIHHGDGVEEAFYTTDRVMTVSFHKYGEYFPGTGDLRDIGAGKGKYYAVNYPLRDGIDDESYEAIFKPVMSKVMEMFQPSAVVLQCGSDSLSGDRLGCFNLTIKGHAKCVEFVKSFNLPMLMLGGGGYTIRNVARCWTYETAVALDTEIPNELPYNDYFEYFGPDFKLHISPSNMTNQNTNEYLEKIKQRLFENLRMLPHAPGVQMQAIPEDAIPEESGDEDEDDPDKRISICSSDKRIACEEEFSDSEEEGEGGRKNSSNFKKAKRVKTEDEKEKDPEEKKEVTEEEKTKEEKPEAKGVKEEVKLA
Experiment: Enzymatic screening, HDAC1 inhibition (fluorogenic FdL_G substrate)
pIC50: −log10 of the molar value.
PROPERTY: pIC50

Write down the reported pIC50 of CC(C)(C)OC(=O)N1CCC2(CC1)C(=O)Nc1ccc(-c3cn(Cc4ccc(-c5nnc(C(F)F)o5)cc4)nn3)cc12 [compound 216] , test system: recombinant human HDAC1 (Homo sapiens (Human), UniProt Q13547).
< 3.70

Write down the reported pIC50 of Nc1ccc(-c2cn(Cc3ccc(-c4nnc(C(F)F)o4)cc3F)nn2)cn1 [compound 48] , test system: recombinant human HDAC1 (Homo sapiens (Human), UniProt Q13547).
< 4.52

Write down the reported pIC50 of CC(c1ccc(-c2nnc(C(F)F)o2)cn1)n1cc(-c2ccc(N)nc2)nn1 (centres unmarked) [Compd. 59] , test system: recombinant human HDAC1 (Homo sapiens (Human), UniProt Q13547).
< 3.70

Could you now look at the following compound, please?
Write down the reported pIC50 of O=C(Nc1cccc(-c2nnn(Cc3ccc(-c4nnc(C(F)F)o4)cc3)n2)c1)c1ccccc1 [compound 156] , test system: recombinant human HDAC1 (Homo sapiens (Human), UniProt Q13547).
< 3.70

###

Let's look at some compounds and their measured pIC50.
Biological target: recombinant human HDAC1 (Homo sapiens (Human))
Experiment: Enzymatic screening, HDAC1 inhibition (fluorogenic FdL_G substrate)
pIC50: −log10 of the molar value.

Worked examples follow.
Which pIC50 is reported for this compound? [2H]C([2H])(c1ccc(-c2nnc(C(F)F)o2)cc1)n1cnc(-c2ccc(NC3=NCCN3)cc2)c1 [compound 368]
< 3.00

Which pIC50 is reported for this compound? Nc1ccc(-c2nnnn2Cc2ncc(-c3nnc(C(F)F)o3)cn2)cn1 [compound 290]
< 3.70

Others:
Which pIC50 is reported for this compound? FC(F)c1nnc(-c2ccc(Cn3nnc(-c4cccc(-c5nc6c([nH]5)CCNC6)c4)n3)cc2)o1 [compound 108]
4.18

Which pIC50 is reported for this compound? Cc1nc(F)ccc1-c1cn(Cc2ccc(-c3nnc(C(F)F)o3)cc2)nn1 [compound 241]
< 3.70

###

Let's look at some compounds and their measured IC50.
Molecular target: recombinant human HDAC6 (Homo sapiens (Human))
Sequence (Q9UBN7 whole entry): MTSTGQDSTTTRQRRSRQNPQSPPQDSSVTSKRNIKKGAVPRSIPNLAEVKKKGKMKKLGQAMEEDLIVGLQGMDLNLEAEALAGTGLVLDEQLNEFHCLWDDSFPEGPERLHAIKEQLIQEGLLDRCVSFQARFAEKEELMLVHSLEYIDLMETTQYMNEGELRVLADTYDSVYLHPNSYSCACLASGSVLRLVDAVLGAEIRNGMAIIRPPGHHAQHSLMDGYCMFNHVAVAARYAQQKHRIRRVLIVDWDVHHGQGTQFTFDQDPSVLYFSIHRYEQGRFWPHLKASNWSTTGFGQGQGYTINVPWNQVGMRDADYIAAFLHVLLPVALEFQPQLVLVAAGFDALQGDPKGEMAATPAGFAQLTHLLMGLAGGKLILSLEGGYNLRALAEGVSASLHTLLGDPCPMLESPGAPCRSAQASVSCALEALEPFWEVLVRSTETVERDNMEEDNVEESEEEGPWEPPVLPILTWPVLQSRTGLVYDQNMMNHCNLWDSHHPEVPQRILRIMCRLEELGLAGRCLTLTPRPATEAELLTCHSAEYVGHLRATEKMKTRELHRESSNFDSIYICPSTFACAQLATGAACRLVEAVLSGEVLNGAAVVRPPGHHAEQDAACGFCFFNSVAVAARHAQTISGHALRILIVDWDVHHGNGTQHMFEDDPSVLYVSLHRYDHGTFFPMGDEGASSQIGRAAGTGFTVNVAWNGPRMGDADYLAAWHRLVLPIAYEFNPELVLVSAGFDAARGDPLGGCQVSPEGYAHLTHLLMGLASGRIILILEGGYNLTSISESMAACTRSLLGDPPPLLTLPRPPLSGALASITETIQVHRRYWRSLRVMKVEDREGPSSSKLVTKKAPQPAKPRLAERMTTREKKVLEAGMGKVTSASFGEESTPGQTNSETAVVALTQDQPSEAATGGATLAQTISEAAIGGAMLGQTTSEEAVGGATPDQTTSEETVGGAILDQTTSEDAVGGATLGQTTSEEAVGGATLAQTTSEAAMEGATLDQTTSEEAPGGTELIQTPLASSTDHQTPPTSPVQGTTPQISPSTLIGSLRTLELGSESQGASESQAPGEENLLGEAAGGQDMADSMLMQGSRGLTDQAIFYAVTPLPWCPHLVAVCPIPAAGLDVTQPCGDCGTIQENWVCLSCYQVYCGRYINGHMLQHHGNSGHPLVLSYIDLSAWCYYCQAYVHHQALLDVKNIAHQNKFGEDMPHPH
Experiment: Enzymatic screening, HDAC6 inhibition (fluorogenic FdL_G substrate)
Procedure: For each test compound, 100× concentrated DMSO solutions at 8 doses were prepared and then diluted in assay buffer (25 mM Tris-HCl, pH 8, 130 mM NaCl, 0.05% Tween-20, 10% Glycerol) to obtain 5× concentrated solutions in relation to the final concentrations (typical final concentration range—6.4-200000 nM or 0.18-50000 nM, final DMSO content—1%). […]
# unit: nM | format: bare number

Worked examples follow.
Which IC50 is reported for this compound? FC(F)c1nnc(-c2ccc(Cc3cn(-c4ccc(NC5=NCCN5)cc4)nn3)cc2)o1
56

Which IC50 is reported for this compound? Nc1ccc(-c2cn(C(CN3CCCC3)c3ccc(-c4nnc(C(F)F)o4)cn3)nn2)cn1 (centres unmarked)
64

Which IC50 is reported for this compound? CNc1ncc2cc(-c3cn(Cc4cc(F)c(-c5nnc(C(F)F)o5)cc4F)nn3)ccc2n1
217

Which IC50 is reported for this compound? O=C(Nc1ccc(-c2cn(Cc3ncc(-c4nnc(C(F)F)o4)cn3)nn2)cn1)C(F)F
34

Which IC50 is reported for this compound? CC(c1ccc(-c2nnc(C(F)F)o2)cc1F)n1cc(-c2ccc(N)nc2)nn1 (centres unmarked)
96

Which IC50 is reported for this compound? Cn1c(N)nc2cc(-c3nnn(Cc4ccc(-c5nnc(C(F)F)o5)c(F)c4F)n3)ccc21
25

Others:
Which IC50 is reported for this compound? FC(F)c1nnc(-c2ccc(Cn3nnc(-c4ccco4)n3)cc2)o1
157

Which IC50 is reported for this compound? [2H]C([2H])(c1ccc(-c2nnc(C(F)F)o2)cn1)n1cc(-c2ccc3nc(N)sc3c2)nn1
9

###

Let's look at some compounds and their measured IC50.
Molecular target: recombinant human HDAC1 (Homo sapiens (Human), UniProt Q13547)
Assay: Enzymatic screening, HDAC1 inhibition (fluorogenic FdL_G substrate)

Worked examples follow.
Which IC50 is reported for this compound? Nc1ccc(-c2cn(C(CCN3CCCC3)c3ccc(-c4nnc(C(F)F)o4)cc3)nn2)cn1 (stereo not shown)
47.9 µM

Which IC50 is reported for this compound? FC(F)c1nnc(-c2ccc(Cn3cc(-c4cnc5cccnn45)nn3)cc2)o1
> 200 µM

Which IC50 is reported for this compound? O=C(Nc1cccc(-c2cn(Cc3ccc(-c4nnc(C(F)F)o4)cn3)nn2)c1)N1CCOCC1
> 200 µM

Which IC50 is reported for this compound? CNc1ccc(-c2nnn(Cc3ccc(-c4nnc(C(F)F)o4)cc3)n2)cc1NC(=O)N1CCOCC1
> 200 µM

Which IC50 is reported for this compound? CS(=O)(=O)NCC[C@@H](c1ccc(-c2nnc(C(F)F)o2)cc1)n1cc(-c2ccc(N)nc2)nn1
> 1000 µM

Which IC50 is reported for this compound? FC(F)c1nnc(-c2ccc(Cn3cnc(-c4ccc(NC5=NCCN5)cc4)c3)c(Cl)c2)o1
124 µM

Others:
Which IC50 is reported for this compound? Nc1ccc(-c2cn(Cc3ccc(-c4nnc(C(F)F)o4)cc3)cn2)cn1
> 200 µM

Which IC50 is reported for this compound? Nc1ncc(-c2cccc(-c3nnn(Cc4ccc(-c5nnc(C(F)F)o5)cc4)n3)c2)s1
> 200 µM

Which IC50 is reported for this compound? O=C1Nc2ccc(-c3cn(Cc4ccc(-c5nnc(C(F)F)o5)cc4)nn3)cc2C12CCCC2
> 200 µM

Which IC50 is reported for this compound? O=C1Nc2cc(-c3cn(Cc4ccc(-c5nnc(C(F)F)o5)cn4)nn3)ccc2C12CCCC2
> 200 µM

Which IC50 is reported for this compound? FC(F)c1nnc(-c2ccc(Cc3nnc(-c4ccccc4)s3)cc2)o1
> 200 µM

Which IC50 is reported for this compound? O=C1Nc2ccc(-c3cn(Cc4ccc(-c5nnc(C(F)F)o5)cn4)nn3)cc2C12CCNC2 (stereo not shown) [compound 28]
> 200 µM

Which IC50 is reported for this compound? CCS(=O)(=O)N1CCN(Cc2ccc(-c3cn(Cc4c(F)cc(-c5nnc(C(F)F)o5)cc4F)nn3)cc2)CC1
> 200 µM

Which IC50 is reported for this compound? Cn1c(N)nc2cc(-c3cnn(Cc4ccc(-c5nnc(C(F)F)o5)cn4)c3)ccc21
> 1000 µM

Which IC50 is reported for this compound? CNc1ncc2cc(-c3cn(Cc4ccc(-c5nnc(C(F)F)o5)c(F)c4)nn3)ccc2n1
1000 µM

Which IC50 is reported for this compound? Nc1ncc(-c2nnn(Cc3ccc(-c4nnc(C(F)F)o4)cc3)n2)cn1
> 200 µM
